All values here come from ChEMBL document CHEMBL1153580.

- Test system: Rattus norvegicus
- protocol text: Antihypertensive activity in Norwegian albino rat assessed as inhibition of DOCA salt-induced systolic blood pressure at 10 mg/kg, po after 15 mins by non-invasive tail-cuff method
- Assay type: functional
- cond: Artery, 0.25 h
Tick t if inhibition in vivo at 10 mg/kg is 0.9% or greater. Tick f if inhibition in vivo at 10 mg/kg is less than 0.9%.

Threshold query (inhibition in vivo at 10 mg/kg >= 0.9%) on CCOC(=O)C1=C(C)NC(OC)N(CC(=O)c2ccc(OC)cc2)C1c1ccc(O)cc1 (centres undefined)
f

Say whether CCOC(=O)C1=C(C)NC(OC)N(CC(=O)c2ccccc2)C1c1ccc(O)cc1 (centres undefined) shows inhibition in vivo at 10 mg/kg of 0.9% or more.
f

Determine whether this compound has inhibition in vivo at 10 mg/kg no lower than 0.9%: CCOC(=O)C1=C(C)NC(OC)N(CC(=O)c2ccc(Cl)cc2)C1c1ccc(O)cc1 (centres undefined)
t

Hi, just wondering whether CCOC(=O)C1=C(C)NC(OC)N(CC(=O)c2ccc(Cl)cc2)C1c1ccc(OC)cc1 (centres undefined) shows inhibition in vivo at 10 mg/kg of 0.9% or higher.
t

Is inhibition in vivo at 10 mg/kg for CCOC(=O)C1=C(C)NC(OC)N(CC(=O)c2ccc(OC)cc2)C1c1ccc(C)cc1 (centres undefined) at or above 0.9%?
t

Is it the case that CCOC(=O)C1=C(C)NC(OC)N(CC(=O)c2ccc(OC)cc2)C1c1ccc(OC)cc1 (centres undefined) has inhibition in vivo at 10 mg/kg reaching or exceeding 0.9%?
t

I'd appreciate it if you could say whether CCOC(=O)C1=C(C)NC(OC)N(CC(=O)c2ccc(OC)cc2)C1c1ccccc1 (centres undefined) has inhibition in vivo at 10 mg/kg at least equal to 0.9%.
t

Check this compound for inhibition in vivo at 10 mg/kg at or above 0.9%: CCOC(=O)C1=C(C)NC(OC)N(CC(=O)c2ccc(Cl)cc2)C1c1ccc(Cl)cc1 (centres undefined)
f
